Cited source for all entries: patent US20070066516A1

Could you please report measured IC50 for the items listed next?
- Tested System: SSTR2 (Homo sapiens)
- Sequence (P30874 whole entry): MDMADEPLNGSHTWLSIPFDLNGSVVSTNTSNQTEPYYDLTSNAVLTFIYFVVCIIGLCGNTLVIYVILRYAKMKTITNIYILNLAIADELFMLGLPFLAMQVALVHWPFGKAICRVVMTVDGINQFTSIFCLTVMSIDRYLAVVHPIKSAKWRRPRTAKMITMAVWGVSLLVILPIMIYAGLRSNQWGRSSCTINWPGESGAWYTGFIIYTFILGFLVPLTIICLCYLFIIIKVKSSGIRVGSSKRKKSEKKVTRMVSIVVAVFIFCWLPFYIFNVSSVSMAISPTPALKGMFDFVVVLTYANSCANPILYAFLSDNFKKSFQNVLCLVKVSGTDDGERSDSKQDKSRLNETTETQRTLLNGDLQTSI
- Experiment Summary: Radioligand binding assay on membranes of CHO-K1 cells expressing SSTR2
- Test Settings: membranes from CHO-K1 cells stably expressing cloned somatostatin receptor 2
Where a SMILES comes first, the peptide text is derived from it. [ ]: non-standard residue; d: D form. 1Nal = N[C@@H](Cc1cccc2ccccc12)C(=O)O; NMeF = CN[C@@H](Cc1ccccc1)C(=O)O; 4Pal = N[C@@H](Cc1ccncc1)C(=O)O
One number for each entry, in nM.

Worked cases, IC50 given:
CSCC[C@@H]1NC(=O)[C@H]([C@@H](C)O)NC(=O)[C@H](CCCCN)NC(=O)[C@@H](Cc2c[nH]c3ccccc23)NC(=O)[C@H](Cc2ccncc2)NC(=O)[C@H](Cc2ccccc2)N(C)C1=O [P2281, cyclo[(4)Pal-DTrp-Lys-Thr-Met-(NMe)Phe]] (cyclo([4Pal][dW]KTM[NMeF])) :: 0.154
C[C@@H](O)[C@@H]1NC(=O)[C@H](CCCCN)NC(=O)[C@@H](Cc2c[nH]c3ccccc23)NC(=O)[C@H](Cc2ccc(O)cc2)NC(=O)[C@H](CCS)N(C)C(=O)[C@H](Cc2ccccc2)NC1=O [P1839, cyclo[Tyr-DTrp-Lys-Thr-Phe-(NMe)hCys], reference compound] :: 0.032

Then there is this molecule:
Please tell me: IC50 of CSCC[C@@H]1NC(=O)[C@H](C(C)C)NC(=O)[C@H](CCCCN)NC(=O)[C@@H](Cc2c[nH]c3ccccc23)NC(=O)[C@H](Cc2cccc3ccccc23)NC(=O)[C@H](Cc2ccccc2)N(C)C1=O [P2329, cyclo[1Nal-DTrp-Lys-Val-Met-(N-Me)Phe]] (cyclo([1Nal][dW]KVM[NMeF])) , system SSTR2 (Homo sapiens)? 0.437
